Assay: Pharmacokinetic testing in mice;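 also: plasma drug levels in male CD-1 mice by LC-MS/MS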
Assay type: in vivo, male CD-1 mice
Conditions: male, CD-1, plasma; mouse, PO 10 mg/kg; read-out: Area under the curve AUC0-last
Could you please report measured AUC(0-t) for the items listed next?
Please reply with the bare figure in µM·h and do not write the unit itself.

AUC(0-t) recorded for this compound, CNC(=O)c1nnc(NC(=O)C2CC2)cc1Nc1cccc(-c2ncc(S(=N)(=O)C(C)C)cn2)c1OC (stereo not shown) [WX-011] , is 25

Reported AUC(0-t) for CNC(=O)c1nnc(NC(=O)C2CC2)cc1Nc1cccc(-c2ccc(P(=O)(C3CC3)C3CC3)cn2)c1OC [WX-021] was 20.7

Entry CNC(=O)c1nnc(NC(=O)C2CC2)cc1Nc1cccc(-c2ccc(S(=N)(=O)C(C)C)cn2)c1OC (stereo not shown) [WX-012] , AUC(0-t) reported as 16.7

According to the records, this compound CNC(=O)c1cnc(NC(=O)C2CC2)cc1Nc1cccc(-c2ncc(S(=O)(=O)C(C)C)cn2)c1OC [WX-019] displays AUC(0-t) of 61.2

----------
Experiment: Pharmacokinetic testing in mice;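 also: plasma drug levels in male CD-1 mice by LC-MS/MS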
Assay type: in vivo, male CD-1 mice
Details: male, CD-1, plasma; mouse, PO 10 mg/kg; read-out: Peak concentration Cmax
Answer each item with its documented Cmax.
Field format: number, assumed µM, no unit text.

Looking up CNC(=O)c1nnc(NC(=O)C2CC2)cc1Nc1cccc(-c2ncc(S(=N)(=O)C(C)C)cn2)c1OC (stereo not shown) [WX-011] , I found its Cmax recorded as 10.2

# molecule CNC(=O)c1nnc(NC(=O)C2CC2)cc1Nc1cccc(-c2ccc(S(=N)(=O)C(C)C)cn2)c1OC (stereo not shown) [WX-012] ; its Cmax = 12.4

GET /value?item= CNC(=O)c1cnc(NC(=O)C2CC2)cc1Nc1cccc(-c2ncc(S(=O)(=O)C(C)C)cn2)c1OC [WX-019] &field=Cmax returns 17.3

Data point: CNC(=O)c1nnc(NC(=O)C2CC2)cc1Nc1cccc(-c2ccc(P(=O)(C3CC3)C3CC3)cn2)c1OC [WX-021] ; Cmax = 11.3

----------
Provide the reported pIC50 of each item.
Test system: JAK2/2 signaling pathway (GM-CSF/pSTAT5)
Assay: GM-CSF-stimulated pSTAT5 in human PBMC (flow cytometry)
Assay type: cell-based
Settings: CD33-positive cells
The scale used: pIC50 is minus the common logarithm of the concentration in molar units.

Measured pIC50 for this entry CNC(=O)c1nnc(NC(=O)C2CC2)cc1Nc1cccc(-c2ncc(S(=N)(=O)C(C)C)cn2)c1OC (single isomer, unassigned) [WX-011A] on JAK2/2 signaling pathway (GM-CSF/pSTAT5): 5.78

Log: JAK2/2 signaling pathway (GM-CSF/pSTAT5), compound CNC(=O)c1nnc(NC(=O)C2CC2)cc1Nc1cccc(-c2ncc(S(=N)(=O)C(C)C)cn2)c1OC (single isomer, unassigned) [WX-011B] , pIC50 = 5.87

Measured on JAK2/2 signaling pathway (GM-CSF/pSTAT5), CNC(=O)c1nnc(NC(=O)C2CC2)cc1Nc1cccc(-c2ccc(P(=O)(C3CC3)C3CC3)cn2)c1OC has a documented pIC50 of 6.24

Measured pIC50 (JAK2/2 signaling pathway (GM-CSF/pSTAT5)), entry CNC(=O)c1cnc(NC(=O)C2CC2)cc1Nc1cccc(-c2ncc(S(=O)(=O)C(C)C)cn2)c1OC : 5.84

The recorded pIC50 with JAK2/2 signaling pathway (GM-CSF/pSTAT5) for CNC(=O)c1cnc(NC(=O)C2CC2)cc1Nc1cccc(-c2ccc(S(=O)(=O)C(C)C)cn2)c1OC.Cl [Hydrochloride of WX-020] was 5.97
